target: MBD3 MBD (Homo sapiens, UniProt O95983 1-71); experiment: ITC
Sequence (O95983 1-71): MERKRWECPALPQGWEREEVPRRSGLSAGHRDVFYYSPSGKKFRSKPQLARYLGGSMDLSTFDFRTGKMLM
MEASURED METRIC: pKd
On this scale, pKd is minus log10 of a concentration expressed in M (mol/L).

[Q] Any idea what its pKd is? The binder is mCG/TG (dsDNA, 5mC at position 6 of strand 1) DNA 1: GTCAACGTTACG DNA 2: CGTAATGTTGAC
[A] 5.19

[Q] Next: GmCGC (dsDNA, 5mC at position 6 of both strands) DNA 1: GCCAGCGCTGGC DNA 2: GCCAGCGCTGGC
[A] 5.28

[Q] Another binder to look at: AmCGT (mCG) (dsDNA, 5mC at position 6 of both strands) DNA 1: GCCAACGTTGGC DNA 2: GCCAACGTTGGC
[A] 5.27
